procedure_text: qHTS assay to identify small molecule antagonists of the sonic hedgehog signaling (Shh) pathway (AID 1259369); note: nearly all actives have a fitted effect of over 45% in size
reported_conditions: NIH/3T3 Gli1-Luc reporter, Shh antagonist, luminescence 24 h; series mostly up to 92.4 µM
Records with an inconclusive call do not appear. Activity calls are given as the source filed them. Calls come from the whole dose curve.
Labels: active, inactive

>>> class_name("CCCCC(CC)COC(=O)c1ccc(N(C)C)cc1 (stereo not drawn)")
"inactive"
>>> class_name("COc1c(Cl)c(Cl)c(Cl)c(Cl)c1Cl")
"inactive"
>>> class_name("O=C(/C=C/c1ccccc1)OCc1ccccc1")
"inactive"
>>> class_name("C=C(C)C(=O)OCCOC(=O)C(=C)C")
"inactive"
>>> class_name("c1cc(-c2ccncc2)ccn1")
"inactive"
>>> class_name("COC(=O)Nc1nc2ccc(S(=O)c3ccccc3)cc2[nH]1 (stereo not drawn)")
"active"
>>> class_name("Cc1ccc(C)c(O)c1C")
"inactive"
>>> class_name("CCC(C)(O)CCCC(C)C (stereo not drawn)")
"inactive"
>>> class_name("NNc1ccc(C(=O)O)cc1")
"inactive"
>>> class_name("Clc1nc(Cl)c(Cl)c(Cl)c1Cl")
"inactive"
>>> class_name("CNCCCC12CCC(c3ccccc31)c1ccccc12")
"active"
>>> class_name("Nc1ccc(Cl)cc1Cl")
"inactive"
>>> class_name("CC(=O)CC/C=C(\\C)CCC=C(C)C")
"inactive"
>>> class_name("c1ccc2sc(SSN3CCOCC3)nc2c1")
"active"
>>> class_name("Nc1ncnc2nc[nH]c12")
"inactive"
>>> class_name("CCOCCOCCO")
"inactive"
>>> class_name("CC(CCC(=O)O)(c1ccc(O)cc1)c1ccc(O)cc1")
"inactive"
>>> class_name("O=C(O)c1ccccc1Nc1cccc(C(F)(F)F)c1")
"inactive"

----------
subject_of_test: Cytochrome P450 2D6 (Homo sapiens) (UniProt P10635)
Sequence (P10635 whole entry, looked up): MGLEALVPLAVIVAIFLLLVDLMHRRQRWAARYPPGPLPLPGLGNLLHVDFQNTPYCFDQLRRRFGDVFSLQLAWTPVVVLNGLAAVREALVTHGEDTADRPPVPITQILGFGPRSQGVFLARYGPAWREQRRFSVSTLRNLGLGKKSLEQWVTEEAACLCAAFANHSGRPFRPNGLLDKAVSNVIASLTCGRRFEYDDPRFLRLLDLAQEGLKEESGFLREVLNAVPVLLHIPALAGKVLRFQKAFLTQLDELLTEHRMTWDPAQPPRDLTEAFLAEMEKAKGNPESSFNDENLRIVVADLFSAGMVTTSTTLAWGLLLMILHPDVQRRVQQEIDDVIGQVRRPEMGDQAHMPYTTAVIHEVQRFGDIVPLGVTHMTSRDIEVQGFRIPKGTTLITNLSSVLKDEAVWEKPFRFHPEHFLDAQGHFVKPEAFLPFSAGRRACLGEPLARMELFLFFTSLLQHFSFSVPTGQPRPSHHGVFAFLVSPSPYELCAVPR
procedure_text: Cytochrome P450 Family 2 Subfamily D Member 6 (CYP2D6) small molecule antagonists: luciferase reporter qHTS assay (AID 1671196); note: nearly all actives have a fitted effect of over 50% in size
reported_conditions: P450-Glo CYP2D6 enzyme assay, luciferin luminescence, 1 h; series mostly up to 115 µM
Excerpt: U.S. Tox21 Program National Center for Advancing Translational Sciences [NCATS] U.S. Environmental Protection Agency [EPA] National Institutes of Environmental Health Sciences [NIEHS] National Toxicology Program [NTP] U.S. Food and Drug Administration [FDA] […] The luciferin products formed are detected with a luciferin detection reagent, and the amount of light produced is proportional to CYP activity. […]
Results filed as inconclusive are left out. Active and inactive are the calls of the source. Calls come from the whole dose curve; as a rule, active = well fitted inhibition curve with a large enough effect in the repeat runs; inconclusive = weak or mixed curves; inactive = no such curve, though single readings can be large or run the other way.
Outcomes: TRUE = active, FALSE = inactive

>>> class_name("CCC(C)CO (stereo unspecified)")
"FALSE"
>>> class_name("C=CC(C)(CCC=C(C)C)OC(C)=O (stereo unspecified)")
"FALSE"
>>> class_name("CCCCNS(=O)(=O)c1ccccc1")
"FALSE"
>>> class_name("Nc1ncnc2nc[nH]c12")
"FALSE"
>>> class_name("CC(C)=CCCC(C)CCO (stereo unspecified)")
"FALSE"
>>> class_name("CC(C(=O)O)c1cccc(C(=O)c2ccccc2)c1 (stereo unspecified)")
"FALSE"
>>> class_name("Cc1cccc([N+](=O)[O-])c1C")
"FALSE"
>>> class_name("Nc1ncn([C@@H]2O[C@H](CO)[C@@H](O)[C@H]2O)c(=O)n1")
"FALSE"
>>> class_name("CC(C)OB(OC(C)C)OC(C)C")
"FALSE"
>>> class_name("O=c1oc(=O)c2cc3c(=O)oc(=O)c3cc12")
"FALSE"
>>> class_name("c1ccc2cc(Nc3ccc(Nc4ccc5ccccc5c4)cc3)ccc2c1")
"FALSE"
>>> class_name("CCCc1c(OCCCCc2nn[nH]n2)ccc(C(C)=O)c1O")
"FALSE"
>>> class_name("O=C(Nc1ccc(Cl)cc1)Nc1ccc(Cl)c(Cl)c1")
"FALSE"
>>> class_name("CCC(C)(O)CCCC(C)C (stereo unspecified)")
"FALSE"
>>> class_name("CCCCC(CC)COC(=O)c1ccc(N(C)C)cc1 (stereo unspecified)")
"TRUE"
>>> class_name("COC(=O)CCC(=O)OC")
"FALSE"
